assay: Multiple ascending dose study (002 Study): plasma PK; format: in vivo, human; settings: human, plasma, oral, 10 mg, Day 14, 10 mg once daily for 14 days; read-out: AUC(0-24) Mean(SD)
measurement.label: AUC(0-t)

{"columns": ["smiles.str", "reported.value"],
 "data": [
  ["Cc1ncc(OC[C@@]2(c3cccc(F)c3)C[C@H]2C(=O)Nc2ccc(F)cn2)c(C)n1", "~360 ng·h/mL"]
]}

----------
test: Crossover study of relative bioavailability of tablet versus capsule (005 Study): plasma PK; format: in vivo, human; conditions: human, plasma, po, 25 mg, plasma at 8 h, single oral 25 mg Tablet; read-out: C8 Mean(SD)

{"columns": ["smiles.str", "concentration at 8 h"],
 "data": [
  ["Cc1ncc(OC[C@@]2(c3cccc(F)c3)C[C@H]2C(=O)Nc2ccc(F)cn2)c(C)n1", "17.6 ng/mL"]
]}

----------
test: Multiple ascending dose study (002 Study): plasma PK; format: in vivo, human; conditions: human, plasma, oral, 2.5 mg, Day 14, 2.5 mg once daily for 14 days; read-out: Cmax Mean(SD)
measurement.label: Cmax

{"columns": ["smiles.str", "measurement.label", "reported.value"],
 "data": [
  ["Cc1ncc(OC[C@@]2(c3cccc(F)c3)C[C@H]2C(=O)Nc2ccc(F)cn2)c(C)n1", "Cmax", "~15 ng/mL"]
]}

----------
assay: Single daily dose PK in human subjects (summary statements); assay type: in vivo; details: plasma, oral, 2.5 mg, single 2.5 mg daily dose, read-out: mean AUC(0-24)
measurement.label: AUC(0-t)

{"columns": ["compound", "reported.value"],
 "data": [
  ["Cc1ncc(OC[C@@]2(c3cccc(F)c3)C[C@H]2C(=O)Nc2ccc(F)cn2)c(C)n1 [Compound A]", "57 to 60 ng·h/mL"]
]}

----------
experiment: Single dose study (001 Study) Part A: plasma PK of compound A; format: in vivo; conditions: human, plasma, po, 1 mg, single oral 1 mg, healthy subjects (Part A); read-out: Cmax Mean(SD)
measurement.label: Cmax

{"columns": ["smiles.str", "reported.value"],
 "data": [
  ["Cc1ncc(OC[C@@]2(c3cccc(F)c3)C[C@H]2C(=O)Nc2ccc(F)cn2)c(C)n1", "~5.3 ng/mL"]
]}

----------
test: Crossover study of relative bioavailability of tablet versus capsule (005 Study): plasma PK; assay type: in vivo, human; conditions: human, plasma, po, 10 mg, single oral 10 mg Tablet, healthy adults; read-out: AUC(0-t) Mean(SD)
measurement.label: AUC(0-t)

{"columns": ["smiles.str", "reported.value"],
 "data": [
  ["Cc1ncc(OC[C@@]2(c3cccc(F)c3)C[C@H]2C(=O)Nc2ccc(F)cn2)c(C)n1", "0.455 µg·h/mL"]
]}

----------
assay: Single daily dose PK in human subjects (summary statements); format: in vivo; details: plasma, oral, single 10 mg daily dose, read-out: mean t1/2 (converted)
measurement.label: half-life

{"columns": ["smiles.str", "measurement.label", "reported.value"],
 "data": [
  ["Cc1ncc(OC[C@@]2(c3cccc(F)c3)C[C@H]2C(=O)Nc2ccc(F)cn2)c(C)n1", "half-life", "56 to 60 h"]
]}

----------
test: Single dose study (001 Study) Part A: plasma PK of compound A; format: in vivo; conditions: human, plasma, po, 1 mg, single oral 1 mg, healthy subjects (Part A); read-out: AUC(0-inf) Mean(SD)
measurement.label: AUC(0-inf)

{"columns": ["smiles.str", "measurement.label", "reported.value"],
 "data": [
  ["Cc1ncc(OC[C@@]2(c3cccc(F)c3)C[C@H]2C(=O)Nc2ccc(F)cn2)c(C)n1", "AUC(0-inf)", "~0.0198 µg·h/mL"]
]}

----------
assay: Crossover study of relative bioavailability of tablet versus capsule (005 Study): plasma PK; type: in vivo, human; conditions: human, plasma, po, 10 mg, single oral 10 mg Tablet, healthy adults; read-out: tmax (median)
measurement.label: Tmax (h)

{"columns": ["smiles.str", "measurement.label", "reported.value"],
 "data": [
  ["Cc1ncc(OC[C@@]2(c3cccc(F)c3)C[C@H]2C(=O)Nc2ccc(F)cn2)c(C)n1", "Tmax", 1]
]}

----------
test: Crossover study of relative bioavailability of tablet versus capsule (005 Study): plasma PK; format: in vivo, human; details: human, plasma, po, 25 mg, single oral 25 mg Tablet, healthy adults; read-out: AUC(0-72) Mean(SD)

{"columns": ["smiles.str", "AUC(0-t)"],
 "data": [
  ["Cc1ncc(OC[C@@]2(c3cccc(F)c3)C[C@H]2C(=O)Nc2ccc(F)cn2)c(C)n1", "795 ng·h/mL"]
]}

----------
assay: Multiple ascending dose study (002 Study): plasma PK; assay type: in vivo, human; conditions: human, plasma, oral, 5 mg, Day 14, 5 mg once daily for 14 days; read-out: tmax Median

{"columns": ["smiles.str", "Tmax"],
 "data": [
  ["Cc1ncc(OC[C@@]2(c3cccc(F)c3)C[C@H]2C(=O)Nc2ccc(F)cn2)c(C)n1", "~1 h"]
]}

----------
experiment: Single dose study (001 Study) Part A: plasma PK of compound A; type: in vivo; details: human, plasma, po, 1 mg, single oral 1 mg, healthy subjects (Part A); read-out: tmax Median

{"columns": ["smiles.str", "Tmax"],
 "data": [
  ["Cc1ncc(OC[C@@]2(c3cccc(F)c3)C[C@H]2C(=O)Nc2ccc(F)cn2)c(C)n1", "~1 h"]
]}

----------
test: Single daily dose PK in human subjects (summary statements); assay type: in vivo; conditions: plasma, oral, single 2.5 mg daily dose

{"columns": ["smiles.str", "AUC(0-inf)"],
 "data": [
  ["Cc1ncc(OC[C@@]2(c3cccc(F)c3)C[C@H]2C(=O)Nc2ccc(F)cn2)c(C)n1", "80 to 103 ng·h/mL"]
]}

----------
assay: Multiple ascending dose study (002 Study): plasma PK; assay type: in vivo, human; settings: human, plasma, oral, 2.5 mg, Day 14, 2.5 mg once daily for 14 days; read-out: AUC(0-24) Mean(SD)
measurement.label: AUC(0-t)

{"columns": ["compound", "measurement.label", "reported.value"],
 "data": [
  ["Cc1ncc(OC[C@@]2(c3cccc(F)c3)C[C@H]2C(=O)Nc2ccc(F)cn2)c(C)n1 [Compound A]", "AUC(0-t)", "~120 ng·h/mL"]
]}

----------
assay: Crossover study of relative bioavailability of tablet versus capsule (005 Study): plasma PK; format: in vivo, human; conditions: human, plasma, po, 2.5 mg, single oral 2.5 mg Capsule, healthy adults; read-out: AUC(0-8) Mean(SD)

{"columns": ["compound", "AUC(0-t) [ng·h/mL]"],
 "data": [
  ["Cc1ncc(OC[C@@]2(c3cccc(F)c3)C[C@H]2C(=O)Nc2ccc(F)cn2)c(C)n1 [Compound A]", 45.5]
]}

----------
experiment: Single daily dose PK in human subjects (summary statements); format: in vivo; conditions: plasma, oral, single 2.5 mg daily dose, read-out: mean maximum plasma concentration (Cmax)
measurement.label: Cmax

{"columns": ["smiles.str", "measurement.label", "reported.value"],
 "data": [
  ["Cc1ncc(OC[C@@]2(c3cccc(F)c3)C[C@H]2C(=O)Nc2ccc(F)cn2)c(C)n1", "Cmax", "10 to 18 ng/mL"]
]}

----------
assay: Single dose study (001 Study) Part A: plasma PK of compound A; type: in vivo; conditions: human, plasma, po, 100 mg, single oral 100 mg, healthy subjects (Part A); read-out: AUC(0-inf) Mean(SD)
measurement.label: AUC(0-inf) (ng·h/mL)

{"columns": ["compound", "reported.value"],
 "data": [
  ["Cc1ncc(OC[C@@]2(c3cccc(F)c3)C[C@H]2C(=O)Nc2ccc(F)cn2)c(C)n1 [Compound A]", 4740]
]}

----------
assay: Single dose study (001 Study) Part A: plasma PK of compound A; type: in vivo; conditions: human, plasma, po, 200 mg, single oral 200 mg, healthy subjects (Part A); read-out: t1/2 Median (converted)
measurement.label: half-life

{"columns": ["smiles.str", "measurement.label", "reported.value"],
 "data": [
  ["Cc1ncc(OC[C@@]2(c3cccc(F)c3)C[C@H]2C(=O)Nc2ccc(F)cn2)c(C)n1", "half-life", "65.2 h"]
]}

----------
experiment: Multiple ascending dose study (002 Study): plasma PK; type: in vivo, human; conditions: human, plasma, oral, 2.5 mg, Day 14, 2.5 mg once daily for 14 days; read-out: t1/2 Mean(SD) (converted)

{"columns": ["smiles.str", "half-life"],
 "data": [
  ["Cc1ncc(OC[C@@]2(c3cccc(F)c3)C[C@H]2C(=O)Nc2ccc(F)cn2)c(C)n1", "~44 h"]
]}

----------
test: Crossover study of relative bioavailability of tablet versus capsule (005 Study): plasma PK; type: in vivo, human; details: human, plasma, po, 2.5 mg, single oral 2.5 mg Capsule, healthy adults; read-out: AUC(0-72) Mean(SD)

{"columns": ["smiles.str", "endpoint.unit", "AUC(0-t)"],
 "data": [
  ["Cc1ncc(OC[C@@]2(c3cccc(F)c3)C[C@H]2C(=O)Nc2ccc(F)cn2)c(C)n1", "ng·h/mL", 85.1]
]}
